Measured Titratable Acidity (%) (48 hrs) values are reported for all entries that follow.
- TEST_NAME: Calcium salts, physical/chemical attributes in orange juice, 350 mg/100 mL calcium load
- Assay type: physicochemical
- ASSAY_SETUP: 48 hrs
Return type: number; implicit unit %.

A selection of reference data follows.
[[record]]
compound = "O=P([O-])([O-])O.[Ca+2] [dicalcium phosphate anhydrous]"
meas_value = 0.677

[[record]]
compound = "O=P([O-])([O-])[O-].O=P([O-])([O-])[O-].[Ca+2].[Ca+2].[Ca+2] [tricalcium phosphate]"
meas_value = 0.530

[[record]]
compound = "O.O.[Ca+2].[Cl-].[Cl-] [calcium chloride dihydrate]"
meas_value = 0.618

[[record]]
compound = "O=C([O-])[O-].[Ca+2] [calcium carbonate]"
meas_value = 0.188


Report Titratable Acidity (%) (48 hrs) for O.O=P([O-])([O-])OCC(O)CO.[Ca+2] (centres unmarked) [calcium glycerophosphate monohydrate] please.
0.602
